The entries below are paired with their reported EC50 hGLP1R 100% hP (CreLuc).
TEST SYSTEM: GLP-1 receptor (human (printed as hGLP1R), UniProt P43220 24-463)
ASSAY: cell-based or functional assay
Starred links: 1 amine or outer side, 2 acyl side, 3 side chain; linkers in the order of their positions; H or OH if unused. Non-standard residues stand in square brackets, D forms with d. Groups on a side chain read outwards from the residue. No end group written: not given here. *: point of attachment. C20 diacid = O=C(O)CCCCCCCCCCCCCCCCCCC(=O)*; C18 diacid = O=C(O)CCCCCCCCCCCCCCCCC(=O)*; γGlu = O=C(O)[C@H](CCC(=O)[*:2])N[*:1]; AEEA = NCCOCCOCC(=O)O; Aib = CC(C)(N)C(=O)O

[
  {
    "BINDER": "Y[Aib]EGTFTSDYSI[Aib]LEKQAQ[Aib]AFIEWLIK([AEEA-AEEA-γGlu-γGlu-γGlu-γGlu-C20 diacid])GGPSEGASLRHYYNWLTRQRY-NH2 (also: TFA salt) [Compound 231]",
    "EC50 hGLP1R 100% hP (CreLuc), nM": 3.28
  },
  {
    "BINDER": "YXEGTFTSDYSIXLEKQAQXEFVQWLIKGGPSEGASLRHYYNWLTRQRY (Aib at 2, 13, 20; K28 side chain carries C18DA-E-E-E-E-E (SEQ ID NO: 636); C-terminal amide) [Compound 176]",
    "EC50 hGLP1R 100% hP (CreLuc), nM": 9.56
  },
  {
    "BINDER": "Y[Aib]EGTFTSDYSI[Aib]LEKQAQ[Aib]AFVEWLIK([AEEA-AEEA-γGlu-γGlu-γGlu-γGlu-C20 diacid])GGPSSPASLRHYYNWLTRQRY-NH2 (also: TFA salt) [Compound 175]",
    "EC50 hGLP1R 100% hP (CreLuc), nM": 5.3
  },
  {
    "BINDER": "Y[Aib]EGTFTSDYSI[Aib]LEKQAQ[Aib]AFVQWLIK([AEEA-AEEA-Glu-Glu-Glu-Glu-C18 diacid])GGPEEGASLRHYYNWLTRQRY-NH2 (also: TFA salt) [Compound 177]",
    "EC50 hGLP1R 100% hP (CreLuc), nM": 12.5
  },
  {
    "BINDER": "YXEGTFTSDYSIXLEKQAQXAFVEWLIKGGPSEGVSLRHYYNWLTRQRY (Aib at 2, 13, 20; K28 side chain carries C20DA-gGlu-gGlu-gGlu-gGlu-gGlu-gGlu-eLys; C-terminal amide) [Compound 241]",
    "EC50 hGLP1R 100% hP (CreLuc), nM": 9.65
  },
  {
    "BINDER": "Y[Aib]EGTFTSDYSI[Aib]LEKQAQ[Aib]EFVEWLIKGGPSSGASLRHYYNWLTRQRY-NH2 (not fully specified (residue 28); also: TFA salt) [Compound 201]",
    "EC50 hGLP1R 100% hP (CreLuc), nM": 10.4
  },
  {
    "BINDER": "Y[Aib]EGTFTSDYSI[Aib]LEKQAQ[Aib]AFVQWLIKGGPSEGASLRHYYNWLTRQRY-NH2 (not fully specified (residue 28); also: TFA salt) [Compound 245]",
    "EC50 hGLP1R 100% hP (CreLuc), nM": 3.78
  },
  {
    "BINDER": "Y[Aib]EGTFTSDYSI[Aib]LEKQAQ[Aib]AFVEWLIKGGPSSYASLRHYYNWLTRQRY-NH2 (not fully specified (residue 28); also: TFA salt) [Compound 183]",
    "EC50 hGLP1R 100% hP (CreLuc), nM": 12.8
  },
  {
    "BINDER": "YXEGTFTSDYSIXLEKQAQXAFVEWLIKGGPSSGASLRXYYNWLTRQRY (Aib at 2, 13, 20, 39; K28 side chain carries C20DA-gGlu-gGlu-gGlu-gGlu-gGlu-gGlu-eLys; C-terminal amide) [Compound 182]",
    "EC50 hGLP1R 100% hP (CreLuc), nM": 2.73
  }
]
